# METHOD NOTES: yeast display, Sf9 membrane polyspecificity reagent, FACS + sequencing; frameworks hold sequencing errors
QUANTITY KIND: polyreactivity (PSR sort gate)

Here are 10 sequences together with their reported answers.
BIOPOLYMER SEQUENCE: QVQLVESGGGLVQAGGSLRLSCAASGRIFAYYAMGWYRQAPGKEREVVAAISRSGVSTYYADSVKGRFTISRDNAKNTVYLQMNSLKPEDTAVYYCAARWRYGFTSGDYWGQGTQVNVSS
polyreactivity (PSR sort gate): low polyreactivity

BIOPOLYMER SEQUENCE: QVQLVESGGCLVQAGGSLRLSCAASGFIFSYYALGWYRQAPGKERELVAAITWDGGSTYYADSVKGRFTISRDNAKNSVYLQMNSLKPEDTAVYYCNAYYYYRRPLEGGYWGQGTQVTVSS
polyreactivity (PSR sort gate): low polyreactivity

BIOPOLYMER SEQUENCE: QVQLVESGGGLVQAGGSLRLSCAASGRTFWVYAMGWYRQAPGKERELVASIRRGGSTYYADSVKGRFTISRDNAKNTVYLQMNSLKPEDTAVYYCAAERPYKTFGYGYWGQGTQVTVSS
polyreactivity (PSR sort gate): high polyreactivity

BIOPOLYMER SEQUENCE: QVQLVESGGGLVQAGGSLRLSCAASGRIFGRNAMGWYRQAPGKERELVASITWTGGSTYYADSVKGRFTISRDNAKNTVYLQMNSLKPEDTAVYYCAAETWYGSSWWDAGEYYYWGQGTQVTVSS
polyreactivity (PSR sort gate): high polyreactivity

BIOPOLYMER SEQUENCE: QVQLVESGGGLVQAGGSLRLSCAASGFTFSTNAMGWYRQAPGKETELVAGITSSGGNTYYADSVKGRFTISRDNAKNTVYLQMNSLKPEDTAVYYCAKRRNYVAYDYWGQGTQVTVSS
polyreactivity (PSR sort gate): high polyreactivity

BIOPOLYMER SEQUENCE: QVQLVESGGGLVQAGGSLRLSCAASGSIFYSYAMGWYRQAPGKERELVAAISFSGGSTYYADSVKGRFTISRDNAKNTVYLHMNSLKPEDPAVYYCNTLSADTFDYWGQGTQVTVSS
polyreactivity (PSR sort gate): low polyreactivity

BIOPOLYMER SEQUENCE: QVQLVESGGGVVQAGGSLRLSCAASGRIFVSNPMGWYRQAPGKERELVAAITSGGRTNYADSVKGRFTISRDNAKNTVYLQMNSLKPEDTAVYYCNARGYSSRGFRRYSTKYDYWGQGTQVTVSS
polyreactivity (PSR sort gate): high polyreactivity

BIOPOLYMER SEQUENCE: QVQLVESGRGLVQAGGSLRLSCAASGITFVRYAMGWYRQAPGKEREFVAAITTSGGSTYYADSVKGRFTISRDNAKYSVYLQLNSLKPEDTAVYYCAARANAASRTFNYWGQGTQVTVSS
polyreactivity (PSR sort gate): high polyreactivity

BIOPOLYMER SEQUENCE: QVQLVESGGGLVQAGGSLRLSCAASGSTLIGYAMGWYRQAPGKERELVAVINRSGGRTYYADSVKGRFTISRDNSKNTVYLQMNSLKPEDTAVYYCAARPTALSYDSWGQGTQVTVSS
polyreactivity (PSR sort gate): high polyreactivity

BIOPOLYMER SEQUENCE: QVQLVESGGGLVQAGGSHPLSCAASGRTFGHNAMRSYRQAPGKERELVAAITRSGGRTFYADSVKGRFTISRDNAMNTVYLQMNSLKPEDTAVFYCATDYYRYRDYAYYWLDYNYWGQGTQVTVSS
polyreactivity (PSR sort gate): high polyreactivity

Here are 3 sequences. What values of polyreactivity (PSR sort gate) were reported for them?
1. QVQLVESGAGLVQAGVSLRLSCAPSGFTFTGYAMGWYRQSPGKERELVASISKSDGSTYYAESVKGRFTISRDNAKNTVYLQMNSLKPEDTAVFYCAADANTRGSKGRLTHYDYWGQGSQVTVSS
2. QVQLVESGGGLVQAGGSLRLSCAASGSIYYGKTMGWYRHAAGKEWELDAAISSGGSTKYADSVKGRFTISRDNAKNTVYLQMNSLKPEDTAVYYSAADLPRYWVTWMDYWGQGTQLTVSS
3. QVQIVESGGGLVQAGGSLRLSCAASGNIFDRYAMGWYRQAPGKERELVAGITWSGGSTYYADSVKGRFTISRDNAKNTVYLQMNSLKPDDTAVYYCGQANYYWGLGTQVTVSS

Marked response:
1: low polyreactivity; 2: low polyreactivity; 3: low polyreactivity

Batch of 8 sequences: report polyreactivity (PSR sort gate) for each.
1. QVQLVESGGGLVQAGGSLRLSCAASGSTYARYAMGWYRQAPGKEREFVAAISASGGRTYYADSVKGRFTISRDNAKNTVYLQMNSLKPEDTPVDYCAVRVYAKYFAKYDYWGQGTQVTVSS
2. QVQLVEAGGGLGQAGGSLRLSCAASGRILTPYARGWYRQAPGKERELVAANTSGGRTHYAHSVKGRFTMSRDNAKNTVYLQMNSLTPEDTAVYYCAARVRTGWWVRDDYWGQGTQVTLSS
3. QVQLVESGGCLVQAGGSLRLSCAASGYIFDHYAMGCYRQAPGKERELVAAISRSAGSTYYADSVKGRFTISRDNAKNTVYLQMNSLKPEDTAVYYCNAVVAVRSWRKYEYWGQGTQVTVSS
4. QVQLVESGGGLVQAGGSLRLSCAASGFIFTKYTMGWYRQAPGKERELVADITGRGTSTYADSVKGRFTISRDNAKNTVYLQMNSLKPEDTAVYYCAAVGWFADFLFSDINGYYWGQGTQVTVSS
5. QVQLVESGGGLVQAGGRLRLSCAASGRIFLPDGMGWYIQAAGKERELVATITIGGSSTYADSVKGRFTISRDNAKNTVNLQMNSLKPEHTAVYYCAVRRWVYYLHGYDYWGQGTQETVSS
6. QVQLLESGGGLVQAGGSLRLTCAASGRTFQYNAMGWYRQAPGKERELVGAISSTGGSTYYADSVKGRFTISRDNAKNTVYLQMNSLKPEDTAVYYCARQGRYTRGDYWGQGTQVTVSS
7. QVQLVESGGGLVQAGGSLRLSCAASGRTFSYYTMGRYRQAPGKERELVARISNRGTNTYYADSVKGRFTISRDHAKNSVNLQMNSLKTEDTAVFYCAKYYYTSIVGYDYWGQGTQVTVSS
8. QVQLVESGGGLVQAGGSLRLSCAASGFIIDTYPMGCYRQAPGKERELVAAITRSGGSTYYADSVKGRFTISRDNAKNTVYLQMNSLKPEDTAVYYCAARQRYTRYDYWGQGTQVTVSW

Marked response:
high polyreactivity
high polyreactivity
high polyreactivity
low polyreactivity
low polyreactivity
high polyreactivity
low polyreactivity
high polyreactivity

Provenance of the data: the nanobody polyreactivity screen of Harvey et al. (2022)
